Biological target: Cytochrome P450 3A4 (Homo sapiens, UniProt P08684)
Sequence (P08684 whole entry): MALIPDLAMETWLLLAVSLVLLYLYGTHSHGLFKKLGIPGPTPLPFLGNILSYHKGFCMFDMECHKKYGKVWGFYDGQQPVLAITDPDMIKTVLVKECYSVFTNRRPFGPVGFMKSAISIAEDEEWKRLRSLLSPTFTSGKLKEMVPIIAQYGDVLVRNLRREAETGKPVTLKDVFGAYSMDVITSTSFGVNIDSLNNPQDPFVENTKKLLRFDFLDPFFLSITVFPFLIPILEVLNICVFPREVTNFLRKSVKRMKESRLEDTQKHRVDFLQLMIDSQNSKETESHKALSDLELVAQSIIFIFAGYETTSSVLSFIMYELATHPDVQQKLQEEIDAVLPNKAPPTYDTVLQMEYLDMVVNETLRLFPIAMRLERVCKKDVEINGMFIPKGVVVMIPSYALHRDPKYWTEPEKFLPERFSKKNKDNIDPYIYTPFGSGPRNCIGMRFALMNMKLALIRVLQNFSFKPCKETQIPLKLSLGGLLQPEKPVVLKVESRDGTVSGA
Assay: Inhibition of recombinant CYP3A4 expressed in baculovirus-infected insect microsomes
I'd appreciate it if you could supply log10 IC50 values for the items below.
Form field - Quantity: IC50; Unit: nM; Scale: log10

Per the records, this compound ( Fc1ccc(-c2ccc3c(c2)CCC3c2cccnc2)cc1 (configuration not stated) ) has log10 IC50 equal to 3.23

Per the records, this compound ( COc1ccc(-c2ccc3c(c2)CCC3(O)c2ccncc2)cc1F (configuration not stated) ) has log10 IC50 equal to 3.53

Per the records, this compound ( COc1ccc(-c2ccc3c(c2)CC=C3c2ccncc2)cc1 ) has log10 IC50 equal to 3.38

Per the records, this compound ( Oc1ccc(-c2ccc3c(c2)CCCC3c2ccncc2)cc1F (configuration not stated) ) has log10 IC50 equal to 3.53

Per the records, this compound ( Oc1ccc(-c2ccc3c(c2)CCCC3c2ccncc2)cc1O (configuration not stated) ) has log10 IC50 equal to 2.80

Per the records, this compound ( Fc1ccc(-c2ccc3c(c2)CCC=C3c2ccncc2)cc1F ) has log10 IC50 equal to 3.56

Per the records, this compound ( Fc1ccc(-c2ccc3c(c2)CC=C3c2ccncc2)cc1 ) has log10 IC50 equal to 2.20

Per the records, this compound ( Fc1ccc(-c2ccc3c(c2)CCCC3c2ccncc2)cc1 (configuration not stated) ) has log10 IC50 equal to 3.34

Per the records, this compound ( Oc1ccc(-c2ccc3c(c2)CCC=C3c2ccncc2)cc1O ) has log10 IC50 equal to 2.55

Per the records, this compound ( COc1ccc(-c2ccc3c(c2)CCCC3(O)c2ccncc2)cc1F (configuration not stated) ) has log10 IC50 equal to 4.18

Per the records, this compound ( Fc1ccc(-c2ccc3c(c2)CCC=C3c2ccncc2)cc1 ) has log10 IC50 equal to 3.62
